Test system: HOP-92 NSCLC
Experiment: NCI tumour cell line growth inhibition, 48 h
Here, each record is paired with measured TGI data.
readout_type: TGI (µM)

>>> observed_value("O=c1ccccc(-c2ccc(Br)cc2)c1O")
34.1
>>> observed_value("Nc1nc(Cl)c(N=Nc2ccc(Cl)cc2)c(NCC2(CO)CCC(CCc3ccccc3)C2)n1 (stereo not given)")
29.3
>>> observed_value("C=CCCCCNC(=O)C[C@@H]1C2=C(CC[C@H]1O[Si](C)(C)C(C)(C)C)N1C(=O)CCC/C=C\\C1C2 (stereo not given in full)")
23.1
>>> observed_value("COc1ccc(-c2cc(=O)c3c(O)cc(O)cc3o2)cc1OC")
16.4
>>> observed_value("CCCCCCCCCCCCCCCCCCOP(=O)([O-])OCC[N+](C)(C)C")
1.07
>>> observed_value("O=C(CN(/C=C/C(=O)C(F)(F)F)c1ccc(Cl)cc1)c1ccc(F)cc1")
36.8
>>> observed_value("O=C1/C=C/[C@@H](O)[C@@H]2C[C@@H](O)C[C@H]2/C=C/CCC[C@H](CCc2ccccc2)O1")
0.396
>>> observed_value("COC(=O)c1cnc(Cl)c([N+](=O)[O-])c1")
4.25

* * *

Tested on: SR leukemia
Experiment: NCI tumour cell line growth inhibition, 48 h
Here, each record is paired with measured TGI data.
readout_type: TGI

>>> observed_value("COc1ccc(/C=C2\\COc3ccc(O)c(O)c3C2=O)cc1")
"> 100 µM"
>>> observed_value("O=c1c(=O)c2cscc2c1=O")
"1.1 µM"
>>> observed_value("CC(C)N(CCCNC(=O)Nc1ccc(C(C)(C)C)cc1)C[C@H]1O[C@@H](n2ccc3c(N)ncnc32)[C@H](O)[C@@H]1O")
"> 100 µM"
>>> observed_value("Cn1ccc2c1SSSSS2")
"33.8 µM"
>>> observed_value("COc1ccc(C2SC(N)=Nc3c2c(C)nn3C(=O)Cc2ccccc2)cc1 (stereo not given)")
"> 100 µM"
>>> observed_value("CSc1cc(-c2cc3ccccc3o2)oc(=O)c1C#N")
"50 µM"
>>> observed_value("Cc1c(C(=O)O)n2c(C)nnc2c2ccccc12")
"> 100 µM"
>>> observed_value("N#C/C(=C\\c1ccc(Br)cc1)n1nnc2c(F)cccc21")
"> 100 µM"
>>> observed_value("O=[N+]([O-])c1nccn1COCCO")
"> 100 µM"
>>> observed_value("N#CC(C#N)=Cc1c[nH]c(=O)[nH]c1=O")
"> 100 µM"
>>> observed_value("COC(=O)C1=C(C=O)C2C=CC1C2 (stereo not given)")
"> 100 µM"
>>> observed_value("Cc1ccc(NC(=O)CC(=O)N2N=C(N(C)c3ccccc3)CC2c2ccccc2)cc1 (stereo not given)")
"> 100 µM"
>>> observed_value("Cc1ccccc1NC(=O)/C(=N/NC(=O)CC#N)C1C(=O)N(c2ccccc2)N=C1N (stereo not given)")
"> 100 µM"
>>> observed_value("C[N+](C)(CCNc1ccc(NCC[N+](C)(C)Cc2ccc([N+](=O)[O-])cc2)c2c1C(=O)c1ccccc1C2=O)Cc1ccc([N+](=O)[O-])cc1")
"> 100 µM"
>>> observed_value("COC(=O)/C=C1/SC(=Nc2ccc(F)cc2)N(CCc2c[nH]c3ccc(O)cc23)C1=O")
"> 100 µM"
>>> observed_value("O=C(CN1CCN(c2cccc(Cl)c2)CC1)N1CCc2c([nH]c3ccccc23)C1c1cccnc1 (stereo not given)")
"7.19 µM"
>>> observed_value("Cc1[nH]n(-c2ncc(C(=O)O)c(=O)[nH]2)c(=O)c1CCO")
"> 100 µM"
>>> observed_value("CCc1n[nH]c(=O)n1O")
"> 100 µM"
>>> observed_value("COC[C@@H]1[C@H]2OC(C)(C)O[C@H]2C(=O)N1C(=O)c1ccc(OC)cc1")
"> 100 µM"
>>> observed_value("CN(C)CCONC(=O)C12CC3CC(CC(C3)C1)C2")
"> 100 µM"
>>> observed_value("COc1cc(/C=C2\\C(=O)Nc3ccccc32)cc(OC)c1O")
"16.9 µM"
>>> observed_value("C=[CH][Sn]([CH]=C)([S]c1cccc2cccnc12)[S]c1cccc2cccnc12")
"0.687 µM"
>>> observed_value("CNC(=S)/C(C#N)=C(\\N)N1CCN(C)CC1")
"> 100 µM"
>>> observed_value("Cc1c2c(n(C)c1C)C(=O)C1C(C2=O)C2(C)c3ccccc3C1(C)c1ccccc12 (stereo not given)")
"> 100 µM"
>>> observed_value("COc1cc2nn(-c3ccccc3)nc2c2nonc12")
"> 100 µM"
>>> observed_value("O=c1ccccc(-c2ccc(Br)cc2)c1O")
"17.1 µM"
>>> observed_value("CSC1N=CNc2c1sc(=S)n2-c1ccccc1 (stereo not given)")
"> 100 µM"
>>> observed_value("OC(COc1cccc2ccccc12)CN1CCOCC1 (stereo not given)")
"> 100 µM"
>>> observed_value("Clc1ccccc1/C=C/c1ccnc2ccccc12")
"46.8 µM"
>>> observed_value("O=C1OC2C=CCC1C2 (stereo not given)")
"> 100 µM"
>>> observed_value("O=c1c2ccccc2n2c(-c3ccc(O)cc3)nnc2n1-c1ccccc1")
"46.2 µM"
>>> observed_value("COc1cc(-c2nn(-c3cccc(NC(=O)Nc4cccc(C(F)(F)F)c4)c3)cc2-c2ccncc2)ccc1Cl")
"2.62 µM"
>>> observed_value("Clc1ccc(Cn2c(CN3CCCC3)nc3ccccc32)cc1")
"75.4 µM"
>>> observed_value("O=C1C=C(Nc2ccc(Br)cc2)c2ccccc2C1=O")
"16.5 µM"
>>> observed_value("COC(=O)/C=C\\[C@H]1[C@H](C)N1S(=O)(=O)c1ccc(C)cc1 (stereo not given in full)")
"> 100 µM"
>>> observed_value("NC(Cc1ccccc1)P(=O)(O)O (stereo not given)")
"> 100 µM"
>>> observed_value("Cc1cc2cn3c4ccc(O)cc4nc(N)c3c2cc1C")
"1.74 µM"
>>> observed_value("CC(=O)OCC1OC(Nc2ccc3nc(C)n(-c4ccccc4)c(=O)c3c2)C(OC(C)=O)C(OC(C)=O)C1OC(C)=O (stereo not given)")
"> 50 µM"
>>> observed_value("COc1ccc(-c2ccc(-c3ccc(C(=N)N)c(F)c3)s2)cc1")
"0.787 µM"
>>> observed_value("CCCCC(=O)OC[n+]1ccc(-c2c(COC(=O)NC(C)C)c(COC(=O)NC(C)C)c3n2CCC3)cc1")
"> 84.4 µM"
>>> observed_value("CCOC(=O)[C@@H]1[C@@H]2NC(=O)N[C@@]1(C)Oc1ccccc12")
"> 100 µM"
>>> observed_value("CC/C=C/C(CC)C/C(C)=C\\[C@]1(CC)C[C@H](CC)[C@H](CC(=O)O)OO1 (stereo not given in full)")
"0.287 µM"
>>> observed_value("CC(CCOc1ccc2ccc(=O)oc2c1)C1=CC(=O)C(C)(C)O1 (stereo not given)")
"3.42 µM"
>>> observed_value("O=c1c2cc(I)ccc2nc(Sc2ccc([N+](=O)[O-])cc2[N+](=O)[O-])n1Cc1ccccc1")
"> 100 µM"
>>> observed_value("S=c1[nH]nc(-c2ccccc2)n1/N=C\\c1ccc(-c2ccc(Cl)cc2)o1")
"> 100 µM"
